- assay details: Hygroscopicity by gravimetric (GVS) or dynamic (DVS) vapour sorption
- Format: physicochemical
- assay context: at 90% RH, 25° C.; GVS (camphorates, camsylate), DVS (mandelate)
- Protocol: Typically, approximately 10-20 mg of sample was placed into a mesh vapour sorption balance pan and loaded into an IGASorp Moisture Sorption Analyser balance by Hiden Analytical. […] The weight change during the sorption/desorption cycles were plotted, allowing for the hygroscopic nature of the sample to be determined. […]
measured property: % Mass increase

>>> measured_result("NC(=O)c1cccc2cn(-c3ccc(C4CCCNC4)cc3)nc12 (stereo not drawn) [(+)-Camphorate]")
"~0.3%"
>>> measured_result("NC(=O)c1cccc2cn(-c3ccc(C4CCCNC4)cc3)nc12 (stereo not shown) [Mandelate]")
"~0.07%"
>>> measured_result("NC(=O)c1cccc2cn(-c3ccc(C4CCCNC4)cc3)nc12 (stereo not shown) [Camsylate]")
"~1.3%"
>>> measured_result("NC(=O)c1cccc2cn(-c3ccc(C4CCCNC4)cc3)nc12 (stereo not drawn) [(−)-Camphorate]")
"~0.2%"

* * *

- assay details: physchem
- assay context: 37 °C, pH 1, simulated gastric fluid, thermodynamic from solid, Solubility pH 1
measured property: solubility at 24 h (µg/mL)

>>> measured_result("NC(=O)c1cccc2cn(-c3ccc([C@@H]4CCCNC4)cc3)nc12 [Tosylate]")
900

* * *

- assay details: physchem
- assay context: 37 °C, water, thermodynamic from solid, Solubility Water
measured property: solubility at 24 h

>>> measured_result("NC(=O)c1cccc2cn(-c3ccc([C@@H]4CCCNC4)cc3)nc12 [Tosylate]")
"500 µg/mL"

* * *

- assay details: physchem
- assay context: 37 °C, pH 6.8, aqueous buffer, thermodynamic from solid, Solubility pH 6.8
measured property: solubility at 24 h

>>> measured_result("NC(=O)c1cccc2cn(-c3ccc([C@@H]4CCCNC4)cc3)nc12 [Tosylate]")
"900 µg/mL"

Data credit: patent US12297184B2
